Value source: paper PMC6167110

Biological target: NgcE^Sco (SCO6005) (Streptomyces coelicolor, UniProt O50499)
Construct: without putative signal peptide (29 N-terminal residues); from E. coli
Sequence (O50499 30-469): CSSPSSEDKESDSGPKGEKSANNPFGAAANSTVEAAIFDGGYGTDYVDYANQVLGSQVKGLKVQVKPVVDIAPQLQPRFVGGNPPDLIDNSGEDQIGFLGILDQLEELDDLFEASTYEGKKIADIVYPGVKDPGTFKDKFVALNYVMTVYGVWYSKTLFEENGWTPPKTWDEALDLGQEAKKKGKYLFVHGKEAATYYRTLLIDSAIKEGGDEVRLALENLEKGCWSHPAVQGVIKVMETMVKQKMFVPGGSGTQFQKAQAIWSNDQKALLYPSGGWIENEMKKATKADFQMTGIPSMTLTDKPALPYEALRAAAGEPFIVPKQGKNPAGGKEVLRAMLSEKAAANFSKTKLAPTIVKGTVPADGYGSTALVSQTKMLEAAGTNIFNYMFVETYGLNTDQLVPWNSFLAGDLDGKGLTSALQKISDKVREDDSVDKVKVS
Assay: intrinsic protein fluorescence titration
Type: binding
pKd overview
Units for pKd: none; it is -log10 of a concentration expressed in mol/L.

CC(=O)N[C@H]1C(O)O[C@H](CO)[C@H](O)[C@@H]1O (some centres unmarked) [GalNAc]; 4.92

# next compound below
Dear colleague, please send me the reported pKd for CC(=O)N[C@H]1C(O)O[C@H](CO)[C@@H](O)[C@@H]1O[C@H](C)C(=O)O (some centres unmarked) [MurNAc] when you can.
4.60
